Every entry's value here was drawn from patent US11999759B2.

Assay overview: Stability of compound 13 prodrugs in human serum
Type: in vitro ADME
Cond: 37° C., prodrug 50.0 μg/mL, t = 5 min
Readout label: % of initial area ratio at t = 5 min
Write your answer as a measured quantity: the number, then the unit.

# query: % of initial area ratio at t = 5 min of entry `COCC(=O)OCOC(=O)c1c(F)ccc2c1OB(O)[C@@H]1C[C@H]21`
58.6%

For the molecule shown here, `O=C(OCOC(=O)C1CCOCC1)c1c(F)ccc2c1OB(O)[C@@H]1C[C@H]21` , give the reported % of initial area ratio at t = 5 min.
69.3%

Given `CC(=O)OCC(=O)OCOC(=O)c1c(F)ccc2c1OB(O)[C@@H]1C[C@H]21` , state its recorded % of initial area ratio at t = 5 min.
29.1%

# input molecule: `O=C(OCOC(=O)c1c(F)ccc2c1OB(O)[C@@H]1C[C@H]21)OC1COC1` ; wanted: its % of initial area ratio at t = 5 min
86.8%

Entry `Cc1oc(=O)oc1COC(=O)c1c(F)ccc2c1OB(O)[C@@H]1C[C@H]21` has what % of initial area ratio at t = 5 min?
48.4%

====

Assayed system: IMP-1 (Serratia marcescens, UniProt P52699)
Sequence (P52699 19-246, looked up, species assumed): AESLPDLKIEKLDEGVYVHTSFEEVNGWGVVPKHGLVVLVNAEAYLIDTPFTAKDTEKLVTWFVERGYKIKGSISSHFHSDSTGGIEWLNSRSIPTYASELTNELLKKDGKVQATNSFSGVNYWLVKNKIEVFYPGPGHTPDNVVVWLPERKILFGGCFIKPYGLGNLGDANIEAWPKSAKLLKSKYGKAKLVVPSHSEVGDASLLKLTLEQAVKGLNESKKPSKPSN
Assay overview: Inhibition of imipenem cleavage by purified IMP-1
Cond: imipenem reporter substrate; 37° C.; read-out: Ki (IMP-1, IMI)
Readout label: Ki

Which Ki is listed for O=C(O)c1cccc2c1OB(O)[C@H]1C[C@@H]21 [Compound 18] ?
> 1 µM

====

Collected Ki values appear next to each entry.
Assayed system: VIM-1 (Pseudomonas aeruginosa, UniProt A0A0F7KYQ8)
Assay overview: Inhibition of nitrocefin cleavage by purified VIM-1
Cond: nitrocefin reporter substrate; 10 min preincubation at room temperature; read-out: Ki (VIM-1, NCF)

GET /values?readout=Ki&system=VIM-1 (Pseudomonas aeruginosa, UniProt A0A0F7KYQ8)&item= COc1ccc2c(c1C(=O)O)OB(O)CC21CC1 [Compound 11]
100 to 1000 nM

Form: Entry = O=C(O)c1nccc2c1OB(O)[C@@H]1C[C@H]21 [Compound 21] | System = VIM-1 (Pseudomonas aeruginosa, UniProt A0A0F7KYQ8) | Ki = ____
100 to 1000 nM

====

Assayed system: OXA-23 (Acinetobacter baumannii, UniProt Q9L4P2)
Sequence (Q9L4P2 18-273): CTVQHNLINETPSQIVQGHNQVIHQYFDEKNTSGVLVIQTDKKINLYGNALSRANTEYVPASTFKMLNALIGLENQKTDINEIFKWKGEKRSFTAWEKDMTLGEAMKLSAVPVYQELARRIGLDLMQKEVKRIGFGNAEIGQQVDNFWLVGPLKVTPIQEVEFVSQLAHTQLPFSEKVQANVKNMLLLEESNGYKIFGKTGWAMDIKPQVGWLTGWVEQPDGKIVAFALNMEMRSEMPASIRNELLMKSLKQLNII
Assay overview: Inhibition of nitrocefin cleavage by purified OXA-23
Cond: nitrocefin reporter substrate; 10 min preincubation at room temperature; read-out: Ki (OXA-23, NCF)
Method: Ki values of inhibition of purified class A, C and D enzymes were determined spectrophotometrically using nitrocefin as reporter substrate. Purified enzymes were mixed with various concentrations of inhibitors in reaction buffer and incubated for 10 min at room temperature. Nitrocefin was added and substrate cleavage profiles were recorded at 490 nm every 10 sec for 10 min. […]
pKi: −log10 of the molar value.
Below is a list of entries, each paired with its recorded pKi value.

Example entries begin here.
{"Compound": "O=C(O)c1cccc2c1OB(O)[C@@H]1C[C@H]21", "pKi": "> 7.00"}
{"Compound": "O=C(O)c1c(F)ccc2c1OB(O)CC21CC1", "pKi": "> 7.00"}
{"Compound": "O=C(O)c1c(F)c(F)cc2c1OB(O)C1CC21 (stereo not drawn)", "pKi": "> 7.00"}
{"Compound": "O=C(O)[C@H]1/C(=C/CO)O[C@@H]2CC(=O)N21 [Clavulanic Acid, reference compound]", "pKi": "< 6.00"}

Field request: pKi | item: COc1ccc2c(c1C(=O)O)OB(O)C1(CO)CC21 (stereo not drawn)
< 6.00

What value of pKi has been reported for the following compound? `COc1ccc2c(c1C(=O)O)OB(O)[C@@H]1COC[C@H]21`
> 7.00

Recorded pKi for `COc1ccc2c(c1C(=O)O)OB(O)C1=C2COC1` , please?
> 7.00

Field request: pKi | item: `O=C(O)c1cccc2c1OB(O)[C@H]1C[C@@H]21`
6.00 to 7.00

Need pKi of `COc1ccc2c(c1C(=O)O)OB(O)[C@H]1C[C@@H]21` , thanks.
> 7.00

====

Reported values of PAM1032/KPC-2 Biapenem MPC64 for individual entries
System: PAM1032/KPC-2 (overexpressed MexAB-OprM)
Assay overview: Biapenem potentiation (MPC64) in PAM1032/KPC-2
Type: cell-based, Pseudomonas aeruginosa
Set-up: unit not given here
Cond: BLI potency to decrease biapenem MIC 64-fold, from 32 to 0.5 μg/ml; efflux proficient strain
Give the value as a plain number.

{"Compound": "COc1ccc2c(c1C(=O)O)OB(O)C(F)=C2", "PAM1032/KPC-2 Biapenem MPC64": 2.5}
{"Compound": "O=C(O)c1nccc2c1OB(O)[C@@H]1C[C@H]21", "PAM1032/KPC-2 Biapenem MPC64": 1.25}
{"Compound": "O=C(O)c1nccc2c1OB(O)[C@H]1C[C@@H]21", "PAM1032/KPC-2 Biapenem MPC64": 5}
{"Compound": "O=C(O)c1cccc2c1OB(O)[C@@H]1C[C@H]21", "PAM1032/KPC-2 Biapenem MPC64": 1.25}
{"Compound": "COc1ccc2c(c1C(=O)O)OB(O)C1C2C1(F)F (stereo not drawn)", "PAM1032/KPC-2 Biapenem MPC64": 20}
{"Compound": "COc1ccc2c(c1C(=O)O)OB(O)[C@@H]1C[C@H]21", "PAM1032/KPC-2 Biapenem MPC64": 5}

What value of PAM1032/KPC-2 Biapenem MPC64 has been recorded for this entry: COc1ccc2c(c1C(=O)O)OB(O)C1CC21 (stereo not drawn)
2.5

I would be grateful if you could share the reported PAM1032/KPC-2 Biapenem MPC64 for `COc1ccc2c(c1C(=O)O)OB(O)[C@H]1C[C@@H]21` .
2.5

====

Reported pKi values for a set of molecules
Assayed system: Pa-AmpC (Pseudomonas aeruginosa)
Sequence (P24735 27-397): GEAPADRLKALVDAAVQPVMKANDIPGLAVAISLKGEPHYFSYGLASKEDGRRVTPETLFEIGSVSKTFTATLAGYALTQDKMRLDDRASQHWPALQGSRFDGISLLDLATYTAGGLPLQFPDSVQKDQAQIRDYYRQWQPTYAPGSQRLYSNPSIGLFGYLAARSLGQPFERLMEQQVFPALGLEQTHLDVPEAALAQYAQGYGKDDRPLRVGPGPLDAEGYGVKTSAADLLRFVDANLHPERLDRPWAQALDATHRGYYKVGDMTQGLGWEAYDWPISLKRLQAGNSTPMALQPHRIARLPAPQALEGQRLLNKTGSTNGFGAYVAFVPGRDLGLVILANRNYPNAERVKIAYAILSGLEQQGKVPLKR
Assay overview: biochemical
Cond: nitrocefin reporter substrate; 10 min preincubation at room temperature; read-out: Ki (Pa-AmpC, NCF)
pKi: −log10 of the molar value.

Take a look at these entries with their results.
{"Molecule": "O=C(O)c1nccc2c1OB(O)[C@@H]1C[C@H]21", "Assayed system": "Pa-AmpC (Pseudomonas aeruginosa)", "Readout label": "pKi", "Value observed": "< 6.00"}
{"Molecule": "COc1ccc2c(c1C(=O)O)OB(O)C(F)=C2", "Assayed system": "Pa-AmpC (Pseudomonas aeruginosa)", "Readout label": "pKi", "Value observed": "> 7.00"}
{"Molecule": "COc1ccc2c(c1C(=O)O)OB(O)CC21CC1", "Assayed system": "Pa-AmpC (Pseudomonas aeruginosa)", "Readout label": "pKi", "Value observed": "> 7.00"}
{"Molecule": "O=C(O)c1nccc2c1OB(O)[C@H]1C[C@@H]21", "Assayed system": "Pa-AmpC (Pseudomonas aeruginosa)", "Readout label": "pKi", "Value observed": "< 6.00"}
{"Molecule": "O=C(O)c1c(F)ccc2c1OB(O)CC21CC1", "Assayed system": "Pa-AmpC (Pseudomonas aeruginosa)", "Readout label": "pKi", "Value observed": "> 7.00"}
{"Molecule": "COc1ccc2c(c1C(=O)O)OB(O)C1C2[C@H]2C=C[C@@H]1C2 (stereo partly shown)", "Assayed system": "Pa-AmpC (Pseudomonas aeruginosa)", "Readout label": "pKi", "Value observed": "> 7.00"}

Then there is this molecule:
Sample COc1ccc2c(c1C(=O)O)OB(O)C1(CO)CC21 (stereo not shown) — what was its pKi?
> 7.00

====

Assay overview: Stability of compound 13 prodrugs in human liver microsomes (HLM)
Type: in vitro ADME
Cond: 0.500 mg/mL human liver microsomes, no cofactors, prodrug 1.00 μM, t = 30 min
Protocol: In the meantime, a 20.0 mg/mL solution of human liver microsomes (XenoTech, LLC) was diluted to 1.00 mg/mL (2× final concentration). Esterase activity for each lot of microsomes used was established by assaying an unrelated ester prodrug as a control. […] The samples were analyzed together with appropriate blanks in order to ensure specificity. The rate of hydrolysis for each prodrug was determined by monitoring the concentration of test compound as follows. […]
Readout label: Average % of initial area ratio at t = 30 min (%)
Write the number in % without appending the unit.

Below: 3 compounds and their reported Average % of initial area ratio at t = 30 min.
{"Compound": "CC(=O)OCC(=O)OCOC(=O)c1c(F)ccc2c1OB(O)[C@@H]1C[C@H]21 [Compound 42]", "Value observed": 0.4}
{"Compound": "O=C(OCOC(=O)C1CC1)c1c(F)ccc2c1OB(O)[C@@H]1C[C@H]21 [Compound 27]", "Value observed": 25.0}
{"Compound": "COCC(=O)OCOC(=O)c1c(F)ccc2c1OB(O)[C@@H]1C[C@H]21 [Compound 43]", "Value observed": 0.6}

I have this compound here, CCCC(=O)OCOC(=O)c1c(F)ccc2c1OB(O)[C@@H]1C[C@H]21 [Compound 26] , and I need its recorded Average % of initial area ratio at t = 30 min.
11.9

Would you mind telling me what Average % of initial area ratio at t = 30 min value was observed for CC(=O)OCOC(=O)c1c(F)ccc2c1OB(O)[C@@H]1C[C@H]21 [Compound 28] ?
19.6
